# credit: ChEMBL document CHEMBL1155326

Catalogue of IC50 readings, one per entry.
tested on: A549; assay: Cytotoxicity against human A549 cell after 72 hrs by SRB assay; format: functional, cell-based; details: A549, 72 h
Give the quantity in µM, number only.

Guide cases for IC50, answers given:
{"structure-as-smiles": "O=C(CCCCN1CCCC1)Nc1ccc(NC(=O)c2cccc3c(=O)c4cccc(C(=O)Nc5ccc(NC(=O)CCCCN6CCCC6)cc5)c4[nH]c23)cc1", "assay-readout": "IC50", "assay-value": 43}
{"structure-as-smiles": "Cn1cc(NC(=O)c2cccc3c(=O)c4cccc(C(=O)Nc5cc(C(=O)NCCCN6CCCC6)n(C)c5)c4[nH]c23)cc1C(=O)NCCCN1CCCC1", "assay-readout": "IC50", "assay-value": 21}
{"structure-as-smiles": "O=C(CCn1ccnc1)Nc1ccc(NC(=O)c2cccc3c(=O)c4cccc(C(=O)Nc5ccc(NC(=O)CCn6ccnc6)cc5)c4[nH]c23)cc1", "assay-readout": "IC50", "assay-value": 19}
{"structure-as-smiles": "O=C(Nc1ccc(NCCCN2CCCC2)cc1)c1cccc2c(=O)c3cccc(C(=O)Nc4ccc(NCCCN5CCCC5)cc4)c3[nH]c12", "assay-readout": "IC50", "assay-value": 66}
{"structure-as-smiles": "O=C(CCCN1CCCC1)Nc1ccc(NC(=O)c2cccc3c(=O)c4cccc(C(=O)Nc5ccc(NC(=O)CCCN6CCCC6)cc5)c4[nH]c23)cc1", "assay-readout": "IC50", "assay-value": 8}
{"structure-as-smiles": "O=C(CCN1CCCC1)Nc1ccc(NC(=O)c2cccc3c(=O)c4ccccc4[nH]c23)cc1", "assay-readout": "IC50", "assay-value": 16}
{"structure-as-smiles": "CN(C)CCCNC(=O)c1cccc2c(=O)c3cccc(C(=O)NCCCN(C)C)c3[nH]c12", "assay-readout": "IC50", "assay-value": 62}

Next, consider the following molecule.
Q: Record request: IC50 value, item O=C(CCN1CCCC1)Nc1ccc(NC(=O)c2cccc3c(=O)c4cccc(C(=O)Nc5ccc(NC(=O)CCN6CCCC6)cc5)c4[nH]c23)cc1
Result: 16
